- Read-out: Paternally Expressed 10 (PEG10), PEG10 (gene 23089)
- run-description: LTEA_HepaRG_PEG10: Life Technologies and Expression Analysis (LTEA) Assay for Paternally Expressed 10 (PEG10) using HepaRG (AID 2283520)
- assay-conditions: mRNA level, 48 h; actives raise or lower the signal
- Protocol: LTEA_HepaRG is a cell based, multiplexed-readout assay that uses HepaRG, a human liver cell line, with measurements taken at 48 hours after chemical dosing on a 96-well plate.LTEA_HepaRG_PEG10 is one of 102 assay component(s) measured in the LTEA HepaRG cell culture assay. It is a marker of Cell proliferation, survival, death.Data from the assay component LTEA_HepaRG_PEG10 was analyzed into 1 endpoint. […]
Activity calls are given as the source filed them. Rule for the calls: active = hit-call score of the fitted dose curve at least 0.9, where 1 is the maximum; inactive = score below 0.9.
Hi! Could you answer with just one of these? active, inactive

// below: answered compounds
{"columns": ["compound", "class-label"],
 "data": [
  ["Cc1cc(Cc2ccc(N)c(C)c2)ccc1N", "inactive"],
  ["CCCCCCC(C=O)=Cc1ccccc1", "inactive"],
  ["Cc1c(C)c2c(c(C)c1O)CCC(C)(COc1ccc(CC3SC(=O)NC3=O)cc1)O2 (stereo unspecified)", "active"]
]}

Task item: Identify the outcome logged in this assay for the compound shown: OCC(CO)n1cnc(-c2ccc(F)cc2)c1-c1ccnc(Oc2ccccc2)n1
Reply: inactive

Task item: Please do the same for CN(C)C(=O)NC1(c2ccccc2)CCN(CC[C@@]2(c3ccc(F)c(F)c3)CN(C(=O)c3ccccc3)CCO2)CC1 as well.
Reply: active

Task item: Also need CCN(CC)CCOc1ccc(C(=C(Cl)c2ccccc2)c2ccccc2)cc1 , thanks.
Reply: inactive

Task item: Then this compound: CC(COCC(C)OC(=O)c1ccccc1)OC(=O)c1ccccc1 (stereo unspecified)
Reply: inactive

Task item: Please give the result for CCCCCCCCCCCCCCOS(=O)(=O)O too.
Reply: inactive

Task item: Same thing, different compound: Nc1nc(=S)c2[nH]cnc2[nH]1
Reply: active

Task item: Then this compound: CC(=O)OC1CC(C)OC(C)O1 (stereo unspecified)
Reply: inactive

Task item: Also COc1ccc(C(=O)Nc2nc3ccccc3c(NCc3ccccc3)c2C#N)cc1 ?
Reply: active
